Every entry's value here was drawn from patent US20220177587A1.

- Tested System: huCTLA4 (Homo sapiens, UniProt P16410)
- Sequence (P16410 36-223): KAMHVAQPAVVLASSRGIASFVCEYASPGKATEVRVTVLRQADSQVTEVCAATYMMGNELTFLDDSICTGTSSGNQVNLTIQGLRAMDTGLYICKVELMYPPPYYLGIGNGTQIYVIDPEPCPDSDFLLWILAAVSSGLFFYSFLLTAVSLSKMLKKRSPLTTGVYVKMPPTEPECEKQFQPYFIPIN
- Test Name: Flow binding to CHO cells stably expressing CTLA4
- Set-up: huCTLA4 and huPD-L1, full-length mammalian surface expression constructs were generated; expressed in transfected cells; host or cells: CHO cells, lentiviral transduction, sorted to >98% purity
- Experimental Setup: Table E19; CHO cells stably expressing CTLA4; 33.3 nM
Observed Property: CTLA4 MFI at 33.3 nM
A bare number is all that is needed in reply.

Molecule | CTLA4 MFI at 33.3 nM
V68M/K89N (protein) VIHVTKEVKEVATLSCGHNVSVEELAQTRIYWQKEKKMVLTMMSGDMNIWPEYKNRTIFDITNNLSIMILALRPSDEGTYECVVLKYENDAFKREHLAEVTLSVKAD | 2330
M47V/N48K/V68M (protein) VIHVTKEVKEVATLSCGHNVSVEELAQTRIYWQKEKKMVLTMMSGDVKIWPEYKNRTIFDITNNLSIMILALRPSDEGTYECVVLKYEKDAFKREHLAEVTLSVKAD | 34612
D46V/L85Q (protein) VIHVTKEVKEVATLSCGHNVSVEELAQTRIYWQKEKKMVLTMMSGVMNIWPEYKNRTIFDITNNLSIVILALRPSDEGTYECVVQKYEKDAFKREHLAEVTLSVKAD | 41896
D46V/M47L (protein) VIHVTKEVKEVATLSCGHNVSVEELAQTRIYWQKEKKMVLTMMSGVLNIWPEYKNRTIFDITNNLSIVILALRPSDEGTYECVVLKYEKDAFKREHLAEVTLSVKAD | 49711
E35D/M47V (protein) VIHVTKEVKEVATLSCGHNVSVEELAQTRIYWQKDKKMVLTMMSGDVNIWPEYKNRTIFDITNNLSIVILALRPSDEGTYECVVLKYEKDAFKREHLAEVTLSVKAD | 44569

Problem: Item E35D/N48K/K89N (protein) VIHVTKEVKEVATLSCGHNVSVEELAQTRIYWQKDKKMVLTMMSGDMKIWPEYKNRTIFDITNNLSIVILALRPSDEGTYECVVLKYENDAFKREHLAEVTLSVKAD has what recorded CTLA4 MFI at 33.3 nM?
Result: 34727

Problem: Item E35D/M47L/V68M (protein) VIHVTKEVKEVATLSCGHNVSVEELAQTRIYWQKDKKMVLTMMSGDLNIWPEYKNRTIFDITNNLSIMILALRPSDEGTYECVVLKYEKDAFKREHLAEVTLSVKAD has what recorded CTLA4 MFI at 33.3 nM?
Result: 28603

Problem: Item N48K/V68M/K89N (protein) VIHVTKEVKEVATLSCGHNVSVEELAQTRIYWQKEKKMVLTMMSGDMKIWPEYKNRTIFDITNNLSIMILALRPSDEGTYECVVLKYENDAFKREHLAEVTLSVKAD has what recorded CTLA4 MFI at 33.3 nM?
Result: 19129
